molecular target: human GzmB (hGzmB) (Homo sapiens, UniProt P10144); construct: For active GzmB vs pro-GzmB, p < 0.0001; test: Fluorescence assay with recombinant hGzmB (fluorogenic response, time course); type: biochemical; conditions: probe 25 μM, hGzmB 20 nM; Data 2
Sequence (P10144 21-247): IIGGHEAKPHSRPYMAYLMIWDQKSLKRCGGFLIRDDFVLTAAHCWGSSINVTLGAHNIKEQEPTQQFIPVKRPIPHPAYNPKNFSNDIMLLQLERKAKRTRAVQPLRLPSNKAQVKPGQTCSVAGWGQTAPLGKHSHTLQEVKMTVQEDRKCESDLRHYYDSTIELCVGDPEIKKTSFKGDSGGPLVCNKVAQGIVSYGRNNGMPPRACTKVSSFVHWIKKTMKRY
Where no end group is shown, it is not given here.
Sorting guide: entries reporting S/N ratios beneath 50 go in the true pile, the rest go in the false pile.

[[record]]
substance = "IEPDRL [H7, negative control FRET hexapeptide IEPDRL]"
target_desc = "human GzmB (hGzmB) (Homo sapiens, UniProt P10144)"
cat = "true"

[[record]]
substance = "IEPDSL [H3, FRET hexapeptide IEPDSL]"
target_desc = "human GzmB (hGzmB) (Homo sapiens, UniProt P10144)"
cat = "false"

[[record]]
substance = "IEPDWR [H6, negative control FRET hexapeptide IEPDWR]"
target_desc = "human GzmB (hGzmB) (Homo sapiens, UniProt P10144)"
cat = "true"

[[record]]
substance = "IEPDWL [H4, FRET hexapeptide IEPDWL]"
target_desc = "human GzmB (hGzmB) (Homo sapiens, UniProt P10144)"
cat = "false"

[[record]]
substance = "IEPDAG [H1, FRET hexapeptide IEPDAG]"
target_desc = "human GzmB (hGzmB) (Homo sapiens, UniProt P10144)"
cat = "true"

[[record]]
substance = "IEPDSG [H2, FRET hexapeptide IEPDSG]"
target_desc = "human GzmB (hGzmB) (Homo sapiens, UniProt P10144)"
cat = "false"

